Hello, the source for this data is the supplement of paper PMC10126150, in case you need it.

# System: ATP;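 also: ATP exposure 15 min at 22 °C before imaging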
# protocol: switch fluorescence ratio, 500 uM ATP over buffer (Cy3 cluster intensity, sum of 5 cycles each) (fold (ratio)); higher = stronger signal-on switching upon ATP binding; sequences stand for … in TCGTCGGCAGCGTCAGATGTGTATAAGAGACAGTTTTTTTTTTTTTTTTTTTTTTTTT…TC
# test.conditions: aptamer strand: ATP DNA aptamer (quencher-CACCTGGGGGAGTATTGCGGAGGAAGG + anchor), 100 nM annealed; ATP concentration: 500 uM
Decide by switch fluorescence ratio: equal to or exceeding 1 means label 1, less means label 0.

Req: Exam item: decide whether the reported switch fluorescence ratio for CGGGACAGTG is at least 1.
Resp: label 0

Req: Please tell me: is the sequence AATGCTAATA at or over 1 in terms of switch fluorescence ratio?
Resp: label 0

Req: Please tell me: is the sequence TTTGGTGATA at or over 1 in terms of switch fluorescence ratio?
Resp: label 0

Req: Given the entry TTGTTGGGGT , answer whether its switch fluorescence ratio meets or surpasses 1.
Resp: label 1

Req: Could you please find out whether TGAGTGGCTT has switch fluorescence ratio that meets 1 or exceeds it?
Resp: label 0

Req: Could you please find out whether GGGAGGTGTT has switch fluorescence ratio that meets 1 or exceeds it?
Resp: label 1

Req: Hi, just wondering whether GCGTATACGC shows switch fluorescence ratio of 1 or higher.
Resp: label 1

Req: Determine whether this sequence has switch fluorescence ratio no lower than 1: GTCTAAGGGA
Resp: label 0

Req: Dear colleague, could you confirm whether TTTTCTGTCG has switch fluorescence ratio at or above 1?
Resp: label 1

Req: Could you tell me if the measured switch fluorescence ratio of CAACGTGTGG reaches 1 or more?
Resp: label 1

Req: Hello, I need to know if GGGGGTAGCA has measured switch fluorescence ratio not below 1. Thanks!
Resp: label 1

Req: I'd appreciate it if you could say whether TACGATGACT has switch fluorescence ratio at least equal to 1.
Resp: label 1

Req: Check if switch fluorescence ratio >= 1 (inclusive). Item: TTTACAGTTG
Resp: label 0

Req: Textbook exercise: given the entry CATGATTAAT , state whether its switch fluorescence ratio is greater than or equal to 1.
Resp: label 0

Req: Exam item: decide whether the reported switch fluorescence ratio for CTGTTGGAAG is at least 1.
Resp: label 0

Req: Kindly determine if switch fluorescence ratio recorded for TAGACTGGGG is above or exactly 1.
Resp: label 0

Req: Could you please find out whether TATAAGTCAC has switch fluorescence ratio that meets 1 or exceeds it?
Resp: label 1

Req: Textbook exercise: given the entry ACGGTTGTAC , state whether its switch fluorescence ratio is greater than or equal to 1.
Resp: label 1

Req: Does the reported switch fluorescence ratio for AGGCCAGGGT fall at or above the 1 mark?
Resp: label 1

Req: In plain terms: is recorded switch fluorescence ratio at least 1 for TTGAACGGTG ?
Resp: label 1

Req: Kindly determine if switch fluorescence ratio recorded for GGCCCGGGGT is above or exactly 1.
Resp: label 1

Req: Test whether the sequence TAAGAACATT records switch fluorescence ratio of 1 or higher.
Resp: label 1

Req: Given TCCTGGGGTC , state whether its switch fluorescence ratio is at least 1.
Resp: label 1

Req: Could you please find out whether TCGCGCAGAA has switch fluorescence ratio that meets 1 or exceeds it?
Resp: label 1

Req: Is reported switch fluorescence ratio greater than or equal to 1 here: TTTGATGGGA
Resp: label 1
